- Test system: α1β3γ2, α3β3γ2, and α5β3γ2 GABAA receptors
- TEST: Two-electrode voltage clamp recordings, other receptor combinations in oocytes
- Type: cell-based
- CONDITIONS: α1β3γ2, α3β3γ2, α5β3γ2 (and α2β3γ2); Figure S3
PROPERTY MEASURED: modulation of GABA currents in all receptor subtypes (in words)

- COMPOUND STRUCTURE STRING: "CCOC(=O)c1ncn2c1[C@H](C)N=C(c1ccccc1F)c1cc(Br)ccc1-2"
  SYSTEM NAME: "α1β3γ2, α3β3γ2, and α5β3γ2 GABAA receptors"
  RESULT: "positive modulation"
- COMPOUND STRUCTURE STRING: "C#Cc1ccc2c(c1)C(c1ccccc1)=N[C@@H](C)c1nnc(C)n1-2"
  SYSTEM NAME: "α1β3γ2, α3β3γ2, and α5β3γ2 GABAA receptors"
  RESULT: "positive modulation"
- COMPOUND STRUCTURE STRING: "CCOC(=O)c1ncn2c1[C@@H](C)N=C(c1ccccc1F)c1cc(Br)ccc1-2"
  SYSTEM NAME: "α1β3γ2, α3β3γ2, and α5β3γ2 GABAA receptors"
  RESULT: "positive modulation"
- COMPOUND STRUCTURE STRING: "C[C@H]1N=C(c2ccccc2)c2cc(Br)ccc2NC1=O"
  SYSTEM NAME: "α1β3γ2, α3β3γ2, and α5β3γ2 GABAA receptors"
  RESULT: "mainly modulatory silent"
- COMPOUND STRUCTURE STRING: "C[C@@H]1N=C(c2ccccc2)c2cc(Br)ccc2NC1=O"
  SYSTEM NAME: "α1β3γ2, α3β3γ2, and α5β3γ2 GABAA receptors"
  RESULT: "positive modulation"

Continue with the next molecule.
Form field modulation of GABA currents in all receptor subtypes (in words) for item C#Cc1ccc2c(c1)C(c1ccccc1)=N[C@H](C)c1nnc(C)n1-2 on α1β3γ2, α3β3γ2, and α5β3γ2 GABAA receptors: mainly modulatory silent
